system: RXF 393 renal; experiment: NCI-60 one-dose screen, 48 h; details: 10 µM unless noted
Compounds without any hit were thinned out: in the full panel of roughly 83,000, 20% have a hit. Calls of active or inactive are those of the source. Rule for the calls: active = growth percent below 10; inactive = the rest.
Please reply with one of these outcomes: label 1 (active), label 0 (inactive)

These solved cases illustrate the format of a correct answer.
INSERT INTO assay_data (compound, group) VALUES
  ('O=C1OCC2=C1C(c1cccc(C(F)(F)F)c1)c1cc3c(cc1N2CCO)CCC3 (stereo not given)', 'label 0'),
  ('CCNC(=S)n1nc(SC)c(C(=O)OCC)c1N', 'label 0'),
  ('N=c1ccccn1CCO', 'label 0');

Which outcome was assigned to CN1CCN(Cc2ccc(NC(=O)c3cccc(C#Cc4c(N)ncc5ccc(F)cc45)c3)cc2C(F)(F)F)CC1 in this test?
label 1

Which outcome was assigned to O=C(CCCOc1ccc(Br)cc1)Nc1ncc(Cc2ccc(F)cc2)s1 in this test?
label 0

Please indicate how the test categorized CC(=O)c1c(C)nc2ccccc2c1/C=C/c1cccc(C)c1 .
label 0

Tell me the recorded outcome of this test for CCCc1cc(C(N)=S)ccn1 .
label 0

Identify the outcome logged in this assay for the compound shown: Cc1ccc(C(=O)N(CCCN)[C@@H](c2nc3cc(Cl)ccc3c(=O)n2Cc2ccccc2)C(C)C)cc1
label 1

For O=C(NCc1ccc(Cn2c(=O)sn(-c3ccc(Cl)cc3)c2=O)cc1)OCc1ccc2c(Cl)cc(Cl)c(O)c2n1 , what call appears in the results of this test?
label 0

// param item: Nc1nc(CSc2n[nH]c(N)n2)nc(Nc2ccccc2)n1 ; yields the recorded call
label 0

I'd appreciate the recorded outcome for Cc1nc2sc(C(=O)Nc3cccc4ncccc34)c(N)c2cc1C(C)O (stereo not given) from this test.
label 0

Just curious, what result did CCOC(=O)C1=C(C)NC(=O)NC1c1c(Cl)n(-c2ccccc2)c2ccccc12 (stereo not given) get here?
label 0

For this compound, state the assay outcome: Cc1cc(N2CCCCC2)nc(NCc2cc(Nc3ccnc4cc(Cl)ccc34)ccc2F)n1
label 1

Hi, do you know how C#CCn1cnc2cnc(Nc3cccc(NC(=O)CCl)c3)nc21 came out in this test?
label 1

Which outcome did this test record for the compound O=C(c1cccc(Br)c1)N1CCN(c2ccnc3cc(Cl)ccc23)CC1 ?
label 0

Lab log entry: O=C1C=C(Nc2ccccc2)c2ncccc2C1=O — outcome as called in the assay?
label 1

# outcome recorded in this test, key = CCCCC#Cc1c(/C=C(\CCCC)SCC)n(C)c(=O)[nH]c1=O
label 1

What outcome does the record of this test show for CCOC(=O)CC1CSC(c2cccc(Cl)c2)=N1 (stereo not given) ?
label 0

Fill in: this test's call for COc1cc(/C=N/NC(=O)CCN2c3ccccc3Sc3ccccc32)cc(OC)c1OC is ___
label 0

Check the results log: what was the call for CCCCC1=C(Br)C(=O)c2nc(C)ccc2C1=O ?
label 0

Would you mind telling me which call this test gave COc1ccc(-c2ccc(-c3ccc(C(=N)N)cn3)o2)cc1Cl ?
label 0

What outcome does the record of this test show for COc1cccc(C2C(C#N)=C(N)Oc3cc(OCCCCCC[P+](c4ccccc4)(c4ccccc4)c4ccccc4)ccc32)c1 (stereo not given) ?
label 1

Dear all, I need the recorded test outcome for N#Cc1c(-c2cccc(F)c2)cc(-c2cccnc2)[nH]c1=O , thank you.
label 0
